src = PubChem BioAssay AID330

# Test system: P388 leukemia ip, CD2F1 mice, survival T/C
# assay text: NCI In Vivo Anticancer Drug Screen. Data for tumor model P388 Leukemia (intraperitoneal) in CD2F1 (CDF1) mice
# condition: endpoint: median survival time; dose: 50.0 mg/kg/injection; schedule: Q04DX002 (ip); vehicle: saline with Tween-80; higher = longer survival
Toxic doses and inconclusive results are not listed.
recorded endpoint: T/C

Inquiry: Field request: T/C | item: CSc1sc(C#N)c(N)c1N=Cc1ccccc1
Reply text: 97 % of control

====

Below, each entry is listed with its recorded T/C.
# Test system: P388 leukemia ip, CD2F1 mice, survival T/C
# assay text: NCI In Vivo Anticancer Drug Screen. Data for tumor model P388 Leukemia (intraperitoneal) in CD2F1 (CDF1) mice
# condition: endpoint: median survival time; dose: 400.0 mg/kg/injection; schedule: Q04DX003 (ip); vehicle: saline with Tween-80; higher = longer survival
# Method: The antitumor activity of compounds was measured in mice bearing transplantable tumors. Survival or tumor size were measured and the results are expressed as the measurement made in the treated group (T) divided by the measurement made in the vehicle treated control group (C). The tumor model used in this assay is P388 Leukemia (intraperitoneal) in CD2F1 (CDF1) mice
Toxic doses and inconclusive results are not listed. Square brackets hold non-standard residues; d marks the D form. Peptide text beside a SMILES is read from it. ξ: configuration not given here. ξD = NC(CC(=O)O)C(=O)O

Completed entries (count: 10):
molecule	T/C
O=C(c1ccc(Cl)cc1)n1c(Cl)c(/C=N\Nc2ccccc2[N+](=O)[O-])c2ccccc21	92 % of control
NCC(=O)NC(CC(=O)O)C(=O)O (configuration not stated) (H-Gly-[ξD]-OH)	94 % of control
COc1cc2c(cc1OC)-c1c3c(cc4c1[C@H](C2)N(C)CC4)OCO3	110 % of control
CCCCCCC(O)CCCCCCCCCCC(=O)O (configuration not stated)	104 % of control
CC(=O)N1C(=O)N(Cl)C(=O)C1(C)c1cccs1 (configuration not stated)	90 % of control
O=C1CC[S][Sn][O]1	95 % of control
Cc1cn(C2OC(CO)C(O)C2O)c(=O)[nH]c1=O (configuration not stated)	100 % of control
O=C(Nc1ccc(Nc2ccc(NC(=O)c3ccccc3)c3c2C(=O)c2ccccc2C3=O)c2c1C(=O)c1ccccc1C2=O)c1ccccc1	100 % of control
CC(C)C(Br)C(=O)NCC(=O)O (configuration not stated)	100 % of control
Cc1ccc(S(=O)(=O)/N=S(/C)c2ccccc2)cc1 (configuration not stated)	120 % of control

Inquiry: Field request: T/C | item: CCCCn1cnc2c(=S)nc(N)[nH]c21
Reply text: 90 % of control

Inquiry: Field request: T/C | item: O=[N+]([O-])c1cc2[nH]cnc2c([N+](=O)[O-])c1Nc1ccccc1
Reply text: 101 % of control
